// provenance: patent US8772446B2

TESTED_SYSTEM: human apo-transferrin (Homo sapiens, UniProt P02787)
Sequence (P02787 20-698): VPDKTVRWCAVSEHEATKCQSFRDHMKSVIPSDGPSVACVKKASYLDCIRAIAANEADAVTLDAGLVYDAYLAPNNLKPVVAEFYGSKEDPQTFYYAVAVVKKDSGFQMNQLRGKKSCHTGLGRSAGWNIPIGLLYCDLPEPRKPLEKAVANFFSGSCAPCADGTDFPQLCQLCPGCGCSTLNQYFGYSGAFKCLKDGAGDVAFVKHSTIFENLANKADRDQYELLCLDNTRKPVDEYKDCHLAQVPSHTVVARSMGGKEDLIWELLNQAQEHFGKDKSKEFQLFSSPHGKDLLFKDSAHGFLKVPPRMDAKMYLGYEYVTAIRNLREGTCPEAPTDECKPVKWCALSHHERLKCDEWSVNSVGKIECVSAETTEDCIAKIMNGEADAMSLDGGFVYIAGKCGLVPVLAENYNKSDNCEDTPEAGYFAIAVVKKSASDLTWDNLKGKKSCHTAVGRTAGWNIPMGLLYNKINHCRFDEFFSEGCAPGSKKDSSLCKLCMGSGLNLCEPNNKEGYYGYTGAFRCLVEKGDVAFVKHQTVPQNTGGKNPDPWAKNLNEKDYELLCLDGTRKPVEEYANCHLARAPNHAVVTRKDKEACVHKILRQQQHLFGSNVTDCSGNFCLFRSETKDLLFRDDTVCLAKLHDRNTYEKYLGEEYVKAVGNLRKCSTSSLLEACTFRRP
TEST_DESCRIPTION: ^67Ga complex stability: 2-h competition with excess human apo-transferrin, HPLC
COND: ^67Ga complex, 37° C, 10 min
Can you tell me Stability in competition with excess human apo-transferrin, 10 min for the items I'm about to list?
Quick note: give the figure in %, leave out the unit.

Asked: Quick check: Stability in competition with excess human apo-transferrin, 10 min of COc1cc(CN(CCN(Cc2cc(OC)cc(OC)c2)Cc2cccc(C(=O)[O-])n2)Cc2cccc(C(=O)[O-])n2)cc(OC)c1.O=[N+]([O-])[O-].[Ga+3] [Ga(88)NO3] ?
Given back: 76

Asked: Look at this compound and give its reported Stability in competition with excess human apo-transferrin, 10 min. COc1cc(OC)c(CN(CCN(Cc2cccc(C(=O)[O-])n2)Cc2c(OC)cc(OC)cc2OC)Cc2cccc(C(=O)[O-])n2)c(OC)c1.O=[N+]([O-])[O-].[Ga+3] [Ga(91a)NO3]
Given back: 86

Asked: Stability in competition with excess human apo-transferrin, 10 min for COc1cc(CN(CCN(Cc2cc(OC)cc(C(=O)[O-])n2)Cc2c(OC)cc(OC)cc2OC)Cc2c(OC)cc(OC)cc2OC)nc(C(=O)[O-])c1.O=[N+]([O-])[O-].[Ga+3] [Ga(91b)NO3] ?
Given back: 97

Asked: Item under review: CCOc1cc(OCC)c(CN(CCN(Cc2cccc(C(=O)[O-])n2)Cc2c(OCC)cc(OCC)cc2OCC)Cc2cccc(C(=O)[O-])n2)c(OCC)c1.O=[N+]([O-])[O-].[Ga+3] [Ga(99a)NO3] . Reported Stability in competition with excess human apo-transferrin, 10 min?
Given back: 95

Asked: Please give the measured Stability in competition with excess human apo-transferrin, 10 min for this compound: CCOc1cc(OCC)c(CN(CCN(Cc2cc(OC)cc(C(=O)[O-])n2)Cc2c(OCC)cc(OCC)cc2OCC)Cc2cc(OC)cc(C(=O)[O-])n2)c(OCC)c1.O=[N+]([O-])[O-].[Ga+3] [Ga(99b)NO3]
Given back: 94

* * *

TEST_DESCRIPTION: Solution thermodynamics: formation constants (log KML) and pM of Ga(III) complexes, potentiometric titration
Type: physicochemical
COND: Calculated for 10 μM total ligand and 1 μM total metal at pH 7.4 and 25° C
MEASUREMENT_KIND: pM
Reply briefly: the number, and no unit.

Asked: Dear colleague, I am looking for the recorded pM of the following compound: O=C(O)c1cccc(CNCCNCc2cccc(C(=O)O)n2)n1 [Compound H2dedpa]
Given back: 27.4

Asked: I am curious: what pM value has been reported for O=C(O)CN(CCN(CC(=O)O)CC(=O)O)CC(=O)O [EDTA, reference compound] ?
Given back: 18.3

Asked: Bench note: what pM did O=C(O)CN1CCN(CC(=O)O)CCN(CC(=O)O)CC1 [NOTA, reference compound] show?
Given back: 27.9

Asked: Fill in the blank: the reported pM of O=C(O)CN1CCN(CC(=O)O)CCN(CC(=O)O)CCN(CC(=O)O)CC1 [DOTA, reference compound] is ____.
Given back: 18.5

* * *

Give measured log P for each item. Keep answers brief.
TEST_DESCRIPTION: log P
Format: physicochemical
Give a plain numeric answer without units written out.

Asked: # input molecule: COc1cc(CN(CCN(Cc2cc(OC)cc(C(=O)[O-])n2)Cc2c(OC)cc(OC)cc2OC)Cc2c(OC)cc(OC)cc2OC)nc(C(=O)[O-])c1.O=[N+]([O-])[O-].[Ga+3] [Ga(91b)NO3] ; wanted: its log P
Given back: 0.66

Asked: Could you tell me which log P is on file for COc1cc(OC)c(CN(CCN(Cc2cccc(C(=O)[O-])n2)Cc2c(OC)cc(OC)cc2OC)Cc2cccc(C(=O)[O-])n2)c(OC)c1.O=[N+]([O-])[O-].[Ga+3] [Ga(91a)NO3] ?
Given back: −0.03

Asked: Given CCOc1cc(OCC)c(CN(CCN(Cc2cc(OC)cc(C(=O)[O-])n2)Cc2c(OCC)cc(OCC)cc2OCC)Cc2cc(OC)cc(C(=O)[O-])n2)c(OCC)c1.O=[N+]([O-])[O-].[Ga+3] [Ga(99b)NO3] , state its recorded log P.
Given back: 1.16

Asked: Query: log P; subject: `COc1cc(CN(CCN(Cc2cc(OC)cc(OC)c2)Cc2cccc(C(=O)[O-])n2)Cc2cccc(C(=O)[O-])n2)cc(OC)c1.O=[N+]([O-])[O-].[Ga+3]`
Given back: −0.32
